These entries and their values trace back to patent US12227533B2.

Experiment: Measurement of the approximate solubility at ambient temperature
Type: physicochemical
Settings: organic solvent or mixture, thermodynamic from solid, ethanol, 23° C.
Observed property: solubility

Tell me its solubility given Cc1cc(OC[P@@]2(=O)OCC[C@@H](c3cccc(Cl)c3)O2)cc(C)c1Cc1ccc(O)c(C(C)C)c1 [Starting Material A] as the entry.
> 200 mg/mL

====

Assay: Measurement of the approximate solubility at ambient temperature
Format: physicochemical
Conditions: organic solvent or mixture, thermodynamic from solid, n-heptane, 23° C.
Observed property: solubility

Tell me its solubility given Cc1cc(OC[P@@]2(=O)OCC[C@@H](c3cccc(Cl)c3)O2)cc(C)c1Cc1ccc(O)c(C(C)C)c1 as the entry.
< 38 mg/mL
